Source of measurements: ChEMBL document CHEMBL4196053

method_notes: Half life in rat liver microsomes at […] in presence of NADPH by HPLC analysis
Type: ADME, microsome
Respond with MET for half-life values of 2 h and above, NOT MET for values below.

Example results:
INSERT INTO results (compound, class_assignment) VALUES
  ('COc1cc(NC(C)CCCNC(=O)C2CCC3(CC2)OOC2(OO3)C3CC4CC(C3)CC2C4)c2ncccc2c1Br (configuration not stated)', 'NOT MET'),
  ('COc1cc(NCCCCCNC(=O)C2CCC3(CC2)OOC2(OO3)C3CC4CC(C3)CC2C4)c2ncccc2c1-c1ccc(F)cc1 (configuration not stated)', 'NOT MET'),
  ('COc1cc(NC(C)CCCNC(=O)C2CCC3(CC2)OOC2(OO3)C3CC4CC(C3)CC2C4)c2ncccc2c1-c1ccc(Cl)cc1 (configuration not stated)', 'MET'),
  ('COc1cc(NC(=O)C2CCC3(CC2)OOC2(OO3)C3CC4CC(C3)CC2C4)c2ncccc2c1-c1ccc(F)cc1 (configuration not stated)', 'NOT MET'),
  ('COc1cc(NC(=O)C2CCC3(CC2)OOC2(OO3)C3CC4CC(C3)CC2C4)c2ncccc2c1-c1ccc(Br)cc1 (configuration not stated)', 'MET'),
  ('COc1cc(NC(=O)C2CCC3(CC2)OOC2(OO3)C3CC4CC(C3)CC2C4)c2ncccc2c1-c1ccc(Cl)cc1 (configuration not stated)', 'MET');

Reported half-life at or above 2 h? COc1cc(NC(C)CCCNC(=O)C2CCC3(CC2)OOC2(OO3)C3CC4CC(C3)CC2C4)c2ncccc2c1-c1ccc(F)cc1 (configuration not stated) NOT MET

* * *

Tested on: Huh-7
method_notes: Cytotoxicity against human HuH7 cells assessed as reduction in cell viability at 10 uM after 48 hrs by Alamar blue assay
Format: cell-based
reported_conditions: huh-7, 48 h
measured_quantity: Activity

Answered examples (5):
INSERT INTO assay_data (compound, system_under_test, reported) VALUES
  ('COc1cc(NC(C)CCCNC(=O)C2CCC3(CC2)OOC2(OO3)C3CC4CC(C3)CC2C4)c2ncccc2c1-c1ccc(F)cc1 (stereo unspecified)', 'Huh-7', 'Non-Toxic'),
  ('COc1cc(NC(C)CCCNCC2CCC3(CC2)OOC2(OO3)C3CC4CC(C3)CC2C4)c2ncccc2c1-c1ccc(F)cc1 (stereo unspecified)', 'Huh-7', 'Toxic'),
  ('COc1cc(NC(C)CCCNC(=O)C2CCC3(CC2)OOC2(OO3)C3CC4CC(C3)CC2C4)c2ncccc2c1-c1ccc(Br)cc1 (stereo unspecified)', 'Huh-7', 'Non-Toxic'),
  ('COc1cc(NC(C)CCCNC(=O)C2CCC3(CC2)OOC2(OO3)C3CC4CC(C3)CC2C4)c2ncccc2c1-c1ccoc1 (stereo unspecified)', 'Huh-7', 'Non-Toxic'),
  ('COc1cc(NCCCNC(=O)C2CCC3(CC2)OOC2(OO3)C3CC4CC(C3)CC2C4)c2ncccc2c1-c1ccc(F)cc1 (stereo unspecified)', 'Huh-7', 'Non-Toxic');

Need Activity of COc1cc(NCCCCNC(=O)C2CCC3(CC2)OOC2(OO3)C3CC4CC(C3)CC2C4)c2ncccc2c1-c1ccc(F)cc1 (stereo unspecified) , thanks. Non-Toxic

* * *

method_notes: Cytotoxicity against human Caco2 cells assessed as reduction in cell viability after 72 hrs by neutral red dye based assay
reported_conditions: Caco-2 cells
measured_quantity: CC50 at 72 h

Hi! Can you tell me CC50 at 72 h for each of these compounds?
1. COc1cc(NC(C)CCCNC(=O)C2CCC3(CC2)OOC2(OO3)C3CC4CC(C3)CC2C4)c2ncccc2c1-c1ccoc1 (stereo not drawn)
2. COc1cc(NC(C)CCCNC(=O)C2CCC3(CC2)OOC2(OO3)C3CC4CC(C3)CC2C4)c2ncccc2c1-c1ccsc1 (stereo not drawn)
3. COc1cc(NC(C)CCCNC(=O)C2CCC3(CC2)OOC2(OO3)C3CC4CC(C3)CC2C4)c2ncccc2c1-c1ccc(C)cc1 (stereo not drawn)

1. > 50 µM
2. > 50 µM
3. > 50 µM
